- assayNotes: ulcerogenic activity test (GI)
- recordedConditions: in vivo, po; read-out: GI ID50 (ulcerogenic activity)
measureName: TD50

**Q:** Which TD50 value is on record for CC(C(=O)O)c1ccc2c(c1)C(=O)c1ccccc1CO2 (stereo not shown) ?
**A:** 5.5 mg/kg

* * *

- assayNotes: ulcerogenic activity test (GI)
- recordedConditions: in vivo, po
measureName: TD50

**Q:** Which TD50 value is on record for CC(CCC(=O)O)c1ccc2c(c1)C(=O)c1ccccc1CO2 (stereo not shown) ?
**A:** > 100 mg/kg
